- experimental-system: BACE (recombinant human BACE catalytic domain, expressed in CHO cells as BACE-T-IgG, IgG1 removed with thrombin) (human) (UniProt P56817)
- Sequence (P56817 43-460 limits assumed, form in doubt): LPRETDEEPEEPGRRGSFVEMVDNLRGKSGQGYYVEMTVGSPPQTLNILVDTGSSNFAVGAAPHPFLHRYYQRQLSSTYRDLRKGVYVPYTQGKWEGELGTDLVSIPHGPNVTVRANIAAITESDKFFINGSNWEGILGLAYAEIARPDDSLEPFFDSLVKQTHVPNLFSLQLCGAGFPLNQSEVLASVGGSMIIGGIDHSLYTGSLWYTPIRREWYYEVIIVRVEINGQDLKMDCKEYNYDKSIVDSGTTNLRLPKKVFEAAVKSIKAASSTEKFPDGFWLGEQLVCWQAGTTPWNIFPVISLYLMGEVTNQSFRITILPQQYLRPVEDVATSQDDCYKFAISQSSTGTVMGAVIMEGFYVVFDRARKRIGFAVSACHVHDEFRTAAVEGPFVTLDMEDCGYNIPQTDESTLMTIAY
- assay-remarks: binding assay without UV light (fluorescence anisotropy); absence of UV light
reported-endpoint: Kd (nM)
Answers are plain numbers, in nM.

substance | Kd [nM]
YPBFIPL-Alexa488 (peptide) | 100

Request: Look up Kd: YPYFIPB-Alexa488 (peptide)
Response: 100
